# key: entry, value: pKd
molecular target: fYF, fluorescently labelled H14 foldamer YF; assay: fluorescence polarisation; direct FP: S100 protein diluted in 50 nM labeled foldamer, 20 mM HEPES pH 7.5, 150 mM NaCl, 1 mM CaCl2, 0.5 mM TCEP, 0.01% Tween20; quadratic fit (ProFit); detection threshold Kd 1 mM
A value of pKd is the negative decimal logarithm of a concentration given in moles per litre.

binder="S100P (natural protein) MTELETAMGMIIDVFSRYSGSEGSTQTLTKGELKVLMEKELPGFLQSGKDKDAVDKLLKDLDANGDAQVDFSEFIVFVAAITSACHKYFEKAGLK" result=4.10

// query Recorded pKd for S100A8 (natural protein) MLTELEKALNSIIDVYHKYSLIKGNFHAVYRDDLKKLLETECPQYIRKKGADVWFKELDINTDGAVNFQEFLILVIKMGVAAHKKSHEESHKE , please?
// result 3.74

Hello, the source for this data is paper PMC8991199, in case you need it.
